System: Vero E6 infected with SARS-CoV-2
METHOD_DESCRIPTION: inhibition of SARS-CoV-2 cytopathic effect; higher = more antiviral protection, active = above 15
EXPERIMENTAL_CONTEXT: 100 nM; 48 h
REPORTED_METRIC: inhibition of SARS-CoV-2 cytopathic effect (%)
Give a bare numeral; the unit % is implied.

Here are 3 molecules together with their reported answers.
molecule=C=CCN1CCc2cc(O)c(O)cc2[C@H](c2ccccc2)C1 endpoint_value=0.35
molecule=C[C@@H]1O[C@@H](OC[C@H]2O[C@@H](Oc3c(-c4ccc(O)c(O)c4)oc4cc(O)cc(O)c4c3=O)[C@H](O)[C@@H](O)[C@@H]2O)[C@H](O)[C@H](O)[C@H]1O endpoint_value=5.75
molecule=Cc1ccsc1C(=CCCN1CCC[C@@H](C(=O)O)C1)c1sccc1C endpoint_value=0.33

Req: Given the molecule O[C@@H](CN1CCC(Cc2ccc(F)cc2)CC1)c1ccc(Cl)cc1 (racemic) , write its reported inhibition of SARS-CoV-2 cytopathic effect.
Resp: 0.19

Req: Given the molecule COc1cc(C(=O)OCCCN2CCCN(CCCOC(=O)c3cc(OC)c(OC)c(OC)c3)CC2)cc(OC)c1OC , write its reported inhibition of SARS-CoV-2 cytopathic effect.
Resp: -0.17

###

Entries and their measured inhibition of SARS-CoV-2 cytopathic effect follow.
Tested on: Vero E6 infected with SARS-CoV-2
METHOD_DESCRIPTION: inhibition of SARS-CoV-2 cytopathic effect; higher = more antiviral protection, active = above 15
EXPERIMENTAL_CONTEXT: 833.33 nM; 48 h
Give a bare numeral; the unit % is implied.

compound="CC(C)(C)CC(C)(C)c1ccc(O)c(Cc2ccc(Cl)cc2Cl)c1 [clofoctol]" study_target="Vero E6 infected with SARS-CoV-2" endpoint_value=3.05
compound="OC(CCN1CCCCC1)(c1ccccc1)C1CCCCC1 (centres undefined) [trihexyphenidyl]" study_target="Vero E6 infected with SARS-CoV-2" endpoint_value=-9.38
compound="Oc1cc(Cl)ccc1Oc1ccc(Cl)cc1Cl [triclosan]" study_target="Vero E6 infected with SARS-CoV-2" endpoint_value=-0.77
compound="Nc1ccn([C@H]2CO[C@@H](CO)S2)c(=O)n1 [apricitabine]" study_target="Vero E6 infected with SARS-CoV-2" endpoint_value=2.02

Req: Given the compound O=C1OC2(c3ccc(O)cc3Oc3cc(O)ccc32)c2ccccc21 [fluorescein] , write its reported inhibition of SARS-CoV-2 cytopathic effect.
Resp: -5.06

Req: Given the compound C[C@H](Nc1ncnc2nc[nH]c12)c1cc2cccc(Cl)c2c(=O)n1-c1ccccc1 [duvelisib] , write its reported inhibition of SARS-CoV-2 cytopathic effect.
Resp: 0.25

Req: Given the compound Cc1ccnc2c1NC(=O)c1cccnc1N2C1CC1 [nevirapine] , write its reported inhibition of SARS-CoV-2 cytopathic effect.
Resp: 0.25

Req: Given the compound c1ccc2sc(SN3CCOCC3)nc2c1 [N-oxydiethylenebenzothiazole-2-sulfenamide] , write its reported inhibition of SARS-CoV-2 cytopathic effect.
Resp: 0.03

Req: Given the compound CN(C)C/C=C/C(=O)Nc1ccc(C(=O)Nc2cccc(Nc3ncc(Cl)c(-c4c[nH]c5ccccc45)n3)c2)cc1 , write its reported inhibition of SARS-CoV-2 cytopathic effect.
Resp: -2.92

These entries and their values trace back to the supplement of paper PMC13380429.
